Consider the following compounds and their measured Population Normal (%) readings.
System: HEK-293T
Test: Multiplex assay against HEK293T
Type: toxicity, cell-based
Conditions: human, 12 h, 1 µM, compound concentration 1 uM, replicate 2
Kindly provide the numeric value in % only, without the unit symbol.

> print(dat)
                                smiles.repr  measured.number
1  CN1CCN(CCOc2cc(OC3CCOCC3)c3c(Nc4c(Cl)ccc5c4OCO5)ncnc3c2)CC1               91
2  CC(C)(O)CNc1ncc(-c2ccnc(Nc3ccnc(Cl)c3)n2)c(CC2CC2)n1               91

Now look at this one.
Ask: Please give the measured Population Normal (%) for this compound: Cc1nc(-c2cn3c(n2)-c2ccc(-c4cnn(C(C)(C)C(N)=O)c4)cc2OCC3)n(C(C)C)n1
Result: 92

Source: ChEMBL document CHEMBL4689842
